- TEST TARGET: CYP2C9 (Homo sapiens, UniProt P11712)
- Construct: human liver microsomes (BD Gentest); tissue BD Gentest; host or cells: human liver microsomes
- Sequence (P11712 whole entry): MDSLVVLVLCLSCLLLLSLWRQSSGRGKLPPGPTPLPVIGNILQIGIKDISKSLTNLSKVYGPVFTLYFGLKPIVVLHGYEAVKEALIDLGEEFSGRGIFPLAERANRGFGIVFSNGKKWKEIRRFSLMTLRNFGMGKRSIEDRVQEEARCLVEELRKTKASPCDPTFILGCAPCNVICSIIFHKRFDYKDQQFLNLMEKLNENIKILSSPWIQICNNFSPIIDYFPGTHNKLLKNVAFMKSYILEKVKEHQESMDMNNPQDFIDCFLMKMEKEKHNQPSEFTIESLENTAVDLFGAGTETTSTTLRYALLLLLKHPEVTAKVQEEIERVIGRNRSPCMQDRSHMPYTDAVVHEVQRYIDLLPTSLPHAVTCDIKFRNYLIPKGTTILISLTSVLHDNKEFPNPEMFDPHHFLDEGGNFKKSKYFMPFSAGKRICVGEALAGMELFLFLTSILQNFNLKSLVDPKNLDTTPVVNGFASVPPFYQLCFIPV
- EXPERIMENTAL PROTOCOL: CYP2C9 inhibition assay
- Assay type: in vitro ADME
- EXPERIMENTAL SETUP: pH 7.4, probe Luciferin-H (100 μM final), human liver microsomes, substrate Luciferin-H, read-out: CYP2C9 % inh @ 2.2 μM
- Method: Stock solutions of test compounds were assayed in 96-well format for their ability to inhibit CYP2C9, CYP2D6, or CYP3A4 mediated metabolism of test substrates. Luciferin-H was used as the substrate for CYP2C9; 3-[2-(N,N-diethyl-N-methylammonium)ethyl]-7-methoxy-4-methylcoumarin (AMMC) was used as the substrate for CYP2D6; 7-benzyloxyquiniline (BZQ) was used as the substrate for CYP3A4. […]
REPORTED ENDPOINT: inhibition at 25 min, 2.2 µM (%)

1. CC1(C)C[C@@H](NC(=O)Nc2cccc3cnccc23)c2ccc(C(F)(F)F)cc2O1; 39
2. Cc1cc2c(NC(=O)N[C@@H]3CC(CF)(CF)Oc4ccccc43)cccc2cn1; 11
3. Cc1cc2c(NC(=O)N[C@@H]3CC(CF)(CF)Oc4cc(F)ccc43)cccc2cn1; 4.1
4. Cc1cc2c(NC(=O)N[C@@H]3CC(C)(C)Oc4cc(F)ccc43)cccc2cn1; 0
5. Cc1cc2c(NC(=O)N[C@@H]3CC(CF)(CF)Oc4c(Cl)cccc43)cccc2cn1; 13
6. Cc1cc2c(NC(=O)N[C@@H]3C[C@](C)(CF)Oc4cc(Cl)ccc43)cccc2cn1 (single isomer, unassigned); 15
7. Cc1cc2c(NC(=O)N[C@@H]3CC(C)(C)Oc4c3ccc(F)c4F)cccc2cn1; 7.6
8. Cc1cc2c(NC(=O)N[C@@H]3CC(C)(C)Oc4c(OC(F)(F)F)cccc43)cccc2cn1; 5.2

Entry source: patent US8604053B2
